These measurements were taken from PubChem BioAssay AID2060490.

# Tested on: 885512-296-R-J2-PDC complex spheroid viability
# protocol_description: Anticancer human tumor 885512-296-R-J2-PDC patient-derived breast carcinoma cell line growth inhibition [GQUAD]
# condition_description: curve of first compound; second compound 0.0316 µM
Give measured IC50 for each item. Keep answers brief.

Form field: reported IC50 of CC1COCCN1c1cc(-c2ccnn2C)c2ccnc(-c3ccn[nH]3)c2n1 (stereo not given) + Cc1cnc(CNC(=O)c2c(=O)c3ccc(N4CCCN(C)CC4)nc3n3c2sc2ccccc23)cn1
< 31.6 nM

Repeat with Cn1ncnc1[C@H]1c2n[nH]c(=O)c3cc(F)cc(c23)N[C@@H]1c1ccc(F)cc1 + Cc1cnc(CNC(=O)c2c(=O)c3ccc(N4CCCN(C)CC4)nc3n3c2sc2ccccc23)cn1
43.5 nM

And for CC(=O)O[C@H]1C(=O)[C@@]2(C)[C@H]([C@H](OC(=O)c3ccccc3)[C@]3(O)C[C@H](OC(=O)[C@H](O)[C@@H](NC(=O)c4ccccc4)c4ccccc4)C(C)=C1C3(C)C)[C@]1(OC(C)=O)CO[C@@H]1C[C@@H]2O + Cc1cnc(CNC(=O)c2c(=O)c3ccc(N4CCCN(C)CC4)nc3n3c2sc2ccccc23)cn1 ?
< 31.6 nM

How about CC1COCCN1c1cc(C2(O)CC3CCC(C2)O3)c2cnn(-c3ccn[nH]3)c2n1 (stereo not given) + CN(C)c1ccc(Nc2c3ccc(NC(=O)CCN4CCCC4)cc3nc3cc(NC(=O)CCN4CCCC4)ccc23)cc1 ?
< 31.6 nM

Moving on to Cn1ncnc1[C@H]1c2n[nH]c(=O)c3cc(F)cc(c23)N[C@@H]1c1ccc(F)cc1 + Cc1[nH]c2ccc(F)cc2c1-c1nc2c3cccnc3c3ncccc3c2[nH]1
277 nM

====

# System: 885512-296-R-J2-PDC complex spheroid viability
# protocol_description: Anticancer human tumor 885512-296-R-J2-PDC cell line growth inhibition [GQUAD];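 note: spheroids exposed to the compounds for one week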;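 for viability, T/C: percent of tumor spheroid viability relative to DMSO vehicle control wells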
# condition_description: second compound 0.1 µM; first compound 0.316 µM; stronger effect = lower value
readout_label: viability, T/C

Endpoint output: viability, T/C of C=CC(=O)N1CCN(c2nc(=O)n(-c3c(C)ccnc3C(C)C)c3nc(-c4c(O)cccc4F)c(F)cc23)C(C)C1 (stereo not drawn) + Cc1cnc(CNC(=O)c2c(=O)c3ccc(N4CCCN(C)CC4)nc3n3c2sc2ccccc23)cn1 . Value?
68.5%

Can you handle CC1COCCN1c1cc(-c2ccnn2C)c2ccnc(-c3ccn[nH]3)c2n1 (stereo not drawn) + Cc1[nH]c2ccc(F)cc2c1-c1nc2c3cccnc3c3ncccc3c2[nH]1 next?
3.53%

Continue with CC(=O)O[C@H]1C(=O)[C@@]2(C)[C@H]([C@H](OC(=O)c3ccccc3)[C@]3(O)C[C@H](OC(=O)[C@H](O)[C@@H](NC(=O)c4ccccc4)c4ccccc4)C(C)=C1C3(C)C)[C@]1(OC(C)=O)CO[C@@H]1C[C@@H]2O + CN(C)c1ccc(Nc2c3ccc(NC(=O)CCN4CCCC4)cc3nc3cc(NC(=O)CCN4CCCC4)ccc23)cc1
3.16%

====

# Test system: 885512-296-R-J2-PDC complex spheroid viability
# protocol_description: Anticancer human tumor 885512-296-R-J2-PDC cell line growth inhibition [GQUAD];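 note: spheroids exposed to the compounds for one week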;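 for viability, T/C: percent of tumor spheroid viability relative to DMSO vehicle control wells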
# condition_description: second compound 0.0316 µM; first compound 0.0316 µM; stronger effect = lower value
Would you mind telling me the reported viability, T/C of each entry?
Supply the numeric figure in %, leaving out any unit text.

Requested field: viability, T/C. Item: CCCS(=O)(=O)Nc1ccc(F)c(C(=O)c2c[nH]c3ncc(-c4ccc(Cl)cc4)cc23)c1F + Cc1[nH]c2ccc(F)cc2c1-c1nc2c3cccnc3c3ncccc3c2[nH]1
112

Another molecule to check: C=CCn1c(=O)c2cnc(Nc3ccc(N4CCN(C)CC4)cc3)nc2n1-c1cccc(C(C)(C)O)n1 + Cc1[nH]c2ccc(F)cc2c1-c1nc2c3cccnc3c3ncccc3c2[nH]1
128

Another: COc1cccc2c1C(=O)c1c(O)c3c(c(O)c1C2=O)CC(O)(C(=O)CO)CC3OC1CC(N)C(O)C(C)O1 (stereo not drawn) + Cc1cnc(CNC(=O)c2c(=O)c3ccc(N4CCCN(C)CC4)nc3n3c2sc2ccccc23)cn1
71

====

# Test system: 885512-296-R-J2-PDC complex spheroid viability
# protocol_description: Anticancer human tumor 885512-296-R-J2-PDC cell line growth inhibition [GQUAD]; active = viability on the fitted dose curve at most 10% of control; inactive = the rest;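 note: spheroids exposed to the compounds for one week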
# condition_description: second compound 3.16 µM; first compound 10 µM
I would appreciate it if you answered using one of these outcomes: Y for active, N for inactive

Tell me the recorded outcome of this test for CC1COCCN1c1cc(-c2ccnn2C)c2ccnc(-c3ccn[nH]3)c2n1 (stereo not given) + Cc1cnc(CNC(=O)c2c(=O)c3ccc(N4CCCN(C)CC4)nc3n3c2sc2ccccc23)cn1 .
Y

Let us now turn to O=C(NO)c1cnc(N2CCN(S(=O)(=O)c3ccc4ccccc4c3)CC2)nc1 + Cc1[nH]c2ccc(F)cc2c1-c1nc2c3cccnc3c3ncccc3c2[nH]1
Y

# repeat for C#Cc1c(F)ccc2cc(O)cc(-c3ncc4c(N5CC6CCC(C5)N6)nc(OCC56CCCN5CC(F)C6)nc4c3F)c12 (stereo not given) + Cc1cnc(CNC(=O)c2c(=O)c3ccc(N4CCCN(C)CC4)nc3n3c2sc2ccccc23)cn1
N

Try the compound COc1cc(C2c3cc4c(cc3C(OC3OC5COC(C)OC5C(O)C3O)C3COC(=O)C23)OCO4)cc(OC)c1O (stereo not given) + CN(C)c1ccc(Nc2c3ccc(NC(=O)CCN4CCCC4)cc3nc3cc(NC(=O)CCN4CCCC4)ccc23)cc1
N

Subsequent entry: O=C(NO)c1cnc(N2CCN(S(=O)(=O)c3ccc4ccccc4c3)CC2)nc1 + Cc1cnc(CNC(=O)c2c(=O)c3ccc(N4CCCN(C)CC4)nc3n3c2sc2ccccc23)cn1
Y

====

# Tested on: 885512-296-R-J2-PDC complex spheroid viability
# protocol_description: Anticancer human tumor 885512-296-R-J2-PDC cell line growth inhibition [GQUAD]; active means viability on the fitted dose curve at most 10% of control; inactive means the rest;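 note: spheroids exposed to the compounds for one week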
# condition_description: second compound 0.1 µM; first compound 0.316 µM
# valid calls are active, inactive; nothing else

Tell me the assay call for Nc1ccn(C2OC(CO)C(O)C2(F)F)c(=O)n1 (stereo not drawn) + Cc1[nH]c2ccc(F)cc2c1-c1nc2c3cccnc3c3ncccc3c2[nH]1 please.
active

Another: Cc1cccc(N(C)C(=O)C2C(O)CCN2c2nc(C)cc(C(F)(F)F)c2C#N)c1 (stereo not drawn) + Cc1cnc(CNC(=O)c2c(=O)c3ccc(N4CCCN(C)CC4)nc3n3c2sc2ccccc23)cn1
inactive

Next compound: CC[C@@]1(O)C(=O)OCc2c1cc1n(c2=O)Cc2cc3c(CN(C)C)c(O)ccc3nc2-1 + Cc1cnc(CNC(=O)c2c(=O)c3ccc(N4CCCN(C)CC4)nc3n3c2sc2ccccc23)cn1
active

====

What IC50 was measured for each of the following?
# System: 885512-296-R-J2-PDC complex spheroid viability
# protocol_description: Anticancer human tumor 885512-296-R-J2-PDC cell line growth inhibition [GQUAD];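 note: spheroids exposed to the compounds for one week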
# condition_description: curve of first compound; second compound 10 µM

What is its IC50 for 885512-296-R-J2-PDC complex spheroid viability? Entry: CC(=O)O[C@H]1C(=O)[C@@]2(C)[C@H]([C@H](OC(=O)c3ccccc3)[C@]3(O)C[C@H](OC(=O)[C@H](O)[C@@H](NC(=O)c4ccccc4)c4ccccc4)C(C)=C1C3(C)C)[C@]1(OC(C)=O)CO[C@@H]1C[C@@H]2O + Cc1cnc(CNC(=O)c2c(=O)c3ccc(N4CCCN(C)CC4)nc3n3c2sc2ccccc23)cn1
< 0.0316 µM

And CC(C)n1c(=O)n(C)c2cnc3cc(F)c(-c4ccc(OCCCN5CCCCC5)nc4)cc3c21 + Cc1cnc(CNC(=O)c2c(=O)c3ccc(N4CCCN(C)CC4)nc3n3c2sc2ccccc23)cn1 ?
< 0.0316 µM

Then what about the molecule Cn1ncnc1[C@H]1c2n[nH]c(=O)c3cc(F)cc(c23)N[C@@H]1c1ccc(F)cc1 + Cc1[nH]c2ccc(F)cc2c1-c1nc2c3cccnc3c3ncccc3c2[nH]1 ?
< 0.000999 µM

Next up: Nc1ccn(C2OC(CO)C(O)C2(F)F)c(=O)n1 (stereo not given) + Cc1cnc(CNC(=O)c2c(=O)c3ccc(N4CCCN(C)CC4)nc3n3c2sc2ccccc23)cn1
< 0.0316 µM

// repeat for CC(C)(O)C1CCC(Nc2ccc3ncc(-c4cccc(C(F)(F)F)c4)n3n2)CC1 (stereo not given) + Cc1[nH]c2ccc(F)cc2c1-c1nc2c3cccnc3c3ncccc3c2[nH]1 and report
< 0.0316 µM

// next record CC1COCCN1c1cc(C2(O)CC3CCC(C2)O3)c2cnn(-c3ccn[nH]3)c2n1 (stereo not given) + Cc1[nH]c2ccc(F)cc2c1-c1nc2c3cccnc3c3ncccc3c2[nH]1
< 0.0316 µM

Then Cc1cccc(N(C)C(=O)C2C(O)CCN2c2nc(C)cc(C(F)(F)F)c2C#N)c1 (stereo not given) + Cc1cnc(CNC(=O)c2c(=O)c3ccc(N4CCCN(C)CC4)nc3n3c2sc2ccccc23)cn1 ?
< 0.0316 µM

And the next one, CC(C)(O)C1CCC(Nc2ccc3ncc(-c4cccc(C(F)(F)F)c4)n3n2)CC1 (stereo not given) + Cc1cnc(CNC(=O)c2c(=O)c3ccc(N4CCCN(C)CC4)nc3n3c2sc2ccccc23)cn1 ?
< 0.0316 µM

Also check Cc1[nH]c2ccccc2c1CCNCc1ccc(/C=C/C(=O)NO)cc1 + Cc1[nH]c2ccc(F)cc2c1-c1nc2c3cccnc3c3ncccc3c2[nH]1
< 0.000999 µM

# iterate: CC(=O)O[C@H]1C(=O)[C@@]2(C)[C@H]([C@H](OC(=O)c3ccccc3)[C@]3(O)C[C@H](OC(=O)[C@H](O)[C@@H](NC(=O)c4ccccc4)c4ccccc4)C(C)=C1C3(C)C)[C@]1(OC(C)=O)CO[C@@H]1C[C@@H]2O + Cc1[nH]c2ccc(F)cc2c1-c1nc2c3cccnc3c3ncccc3c2[nH]1
< 0.0316 µM
